test system: SK-LU-1; assay: relative viability (nuclei count vs DMSO), 5 days (fraction); higher = more cells survive; conditions: first compound 2.53 µM
Measured attribute: relative viability

Compound: COc1nc(C)cnc1NS(=O)(=O)c1cccnc1-c1ccc(-c2nnco2)cc1 [Zibotentan] + CC1(C)CCC(c2ccc(Cl)cc2)=C(CN2CCN(c3ccc(C(=O)NS(=O)(=O)c4ccc(N[C@H](CCN5CCOCC5)CSc5ccccc5)c(S(=O)(=O)C(F)(F)F)c4)cc3)CC2)C1 [Navitoclax] (partner 0.5 µM)
Measured attribute: relative viability
Result: 0.781
//
Compound: COc1nc(C)cnc1NS(=O)(=O)c1cccnc1-c1ccc(-c2nnco2)cc1 [Zibotentan] + Cc1cc(Nc2cc(N3CCN(C)CC3)nc(Sc3ccc(NC(=O)C4CC4)cc3)n2)n[nH]1 [Tozasertib] (partner 0.1 µM)
Measured attribute: relative viability
Result: 0.424
//
Compound: COc1nc(C)cnc1NS(=O)(=O)c1cccnc1-c1ccc(-c2nnco2)cc1 [Zibotentan] + O=C(CCCCCCC(=O)Nc1ccccc1)NO [Vorinostat] (partner 1 µM)
Measured attribute: relative viability
Result: 0.83
//
Compound: COc1nc(C)cnc1NS(=O)(=O)c1cccnc1-c1ccc(-c2nnco2)cc1 [Zibotentan] + C[C@]1(O)C[C@@H](c2nc(-c3ccc4ccc(-c5ccccc5)nc4c3)c3c(N)nccn32)C1 [Linsitinib] (partner 1 µM)
Measured attribute: relative viability
Result: 1.22

###

test system: LC-2-ad; test: relative viability (nuclei count vs DMSO), 5 days (fraction); higher = more cells survive; details: first compound 0.3162 µM
Measured attribute: relative viability

Compound: CCN(CC)CCCCNc1ncc2cc(-c3cc(OC)cc(OC)c3)c(NC(=O)NC(C)(C)C)nc2n1 + CC(C)C[C@H](NC(=O)[C@H](Cc1ccccc1)NC(=O)c1cnccn1)B(O)O [Bortezomib] (partner 0.002 µM)
Result: 1.05

Compound: CCN(CC)CCCCNc1ncc2cc(-c3cc(OC)cc(OC)c3)c(NC(=O)NC(C)(C)C)nc2n1 + C[C@@H](Oc1cc(-c2cnn(C3CCNCC3)c2)cnc1N)c1c(Cl)ccc(F)c1Cl [Crizotinib] (partner 1 µM)
Result: 0.488

###

test system: NCI-H838; assay: relative viability (nuclei count vs DMSO), 5 days (fraction); higher = more cells survive; settings: first compound 1 µM
relative viability for assorted compounds

Compound: O=c1cc(N2CCOCC2)oc2c(-c3cccc4c3sc3ccccc34)cccc12 + CCNC(=O)c1noc(-c2cc(C(C)C)c(O)cc2O)c1-c1ccc(CN2CCOCC2)cc1 [Luminespib] (partner 0.01 µM)
relative viability: 0.287
--
Compound: O=c1cc(N2CCOCC2)oc2c(-c3cccc4c3sc3ccccc34)cccc12 + Cc1cc(Nc2cc(N3CCN(C)CC3)nc(Sc3ccc(NC(=O)C4CC4)cc3)n2)n[nH]1 [Tozasertib] (partner 0.1 µM)
relative viability: 0.237
--
Compound: CCN(CC)CCCCNc1ncc2cc(-c3cc(OC)cc(OC)c3)c(NC(=O)NC(C)(C)C)nc2n1 + NC(=O)Nc1cc(-c2cccc(F)c2)sc1C(=O)N[C@H]1CCCNC1 [AZD7762] (partner 0.2 µM)
relative viability: 0.76
--
Compound: CCN(CC)CCCCNc1ncc2cc(-c3cc(OC)cc(OC)c3)c(NC(=O)NC(C)(C)C)nc2n1 + Cc1cc(Nc2cc(N3CCN(C)CC3)nc(Sc3ccc(NC(=O)C4CC4)cc3)n2)n[nH]1 [Tozasertib] (partner 0.1 µM)
relative viability: 0.205
--
Compound: CCN(CC)CCCCNc1ncc2cc(-c3cc(OC)cc(OC)c3)c(NC(=O)NC(C)(C)C)nc2n1 + Nc1ncn([C@H]2C[C@H](O)[C@@H](CO)O2)c(=O)n1 [Decitabine] (partner 2 µM)
relative viability: 0.418

###

tested on: LOU-NH91; assay: relative viability (nuclei count vs DMSO), 5 days (fraction); higher = more cells survive; conditions: first compound 0.01 µM

Compound: CCN(CC)CCCCNc1ncc2cc(-c3cc(OC)cc(OC)c3)c(NC(=O)NC(C)(C)C)nc2n1 + CC1(C)CCC(c2ccc(Cl)cc2)=C(CN2CCN(c3ccc(C(=O)NS(=O)(=O)c4ccc(N[C@H](CCN5CCOCC5)CSc5ccccc5)c(S(=O)(=O)C(F)(F)F)c4)cc3)CC2)C1 [Navitoclax] (partner 0.5 µM)
Subject of test: LOU-NH91
relative viability: 0.611
//
Compound: O=c1cc(N2CCOCC2)oc2c(-c3cccc4c3sc3ccccc34)cccc12 + COc1cccc2cc(-c3nc([C@H]4CC[C@H](C(=O)O)CC4)n4ncnc(N)c34)[nH]c12 [OSI-027] (partner 0.5 µM)
Subject of test: LOU-NH91
relative viability: 0.68

###

tested on: SW 1573; test: relative viability (nuclei count vs DMSO), 5 days (fraction); higher = more cells survive; conditions: first compound 0.03162 µM
relative viability for assorted compounds
Measured attribute: relative viability

Compound: CCN(CC)CCCCNc1ncc2cc(-c3cc(OC)cc(OC)c3)c(NC(=O)NC(C)(C)C)nc2n1 + COc1cccc2cc(-c3nc([C@H]4CC[C@H](C(=O)O)CC4)n4ncnc(N)c34)[nH]c12 [OSI-027] (partner 0.5 µM)
Subject of test: SW 1573
Measured attribute: relative viability
Result: 0.693

Compound: CCN(CC)CCCCNc1ncc2cc(-c3cc(OC)cc(OC)c3)c(NC(=O)NC(C)(C)C)nc2n1 + C[C@@H](Oc1cc(-c2cnn(C3CCNCC3)c2)cnc1N)c1c(Cl)ccc(F)c1Cl [Crizotinib] (partner 1 µM)
Subject of test: SW 1573
Measured attribute: relative viability
Result: 0.813

Compound: O=c1cc(N2CCOCC2)oc2c(-c3cccc4c3sc3ccccc34)cccc12 + CS(=O)(=O)CCNCc1ccc(-c2ccc3ncnc(Nc4ccc(OCc5cccc(F)c5)c(Cl)c4)c3c2)o1 [Lapatinib] (partner 2 µM)
Subject of test: SW 1573
Measured attribute: relative viability
Result: 1.22

###

relative viability for assorted compounds
test system: HCC-366; assay: relative viability (nuclei count vs DMSO), 5 days (fraction); higher = more cells survive; conditions: first compound 1 µM

Compound: CCN(CC)CCCCNc1ncc2cc(-c3cc(OC)cc(OC)c3)c(NC(=O)NC(C)(C)C)nc2n1 + COc1cc2c(Oc3ccc(NC(=O)C4(C(=O)Nc5ccc(F)cc5)CC4)cc3F)ccnc2cc1OCCCN1CCOCC1 [Foretinib] (partner 0.25 µM)
relative viability: 0.999

Compound: O=c1cc(N2CCOCC2)oc2c(-c3cccc4c3sc3ccccc34)cccc12 + C[C@@H](Oc1cc(-c2cnn(C3CCNCC3)c2)cnc1N)c1c(Cl)ccc(F)c1Cl [Crizotinib] (partner 1 µM)
relative viability: 0.598

###

relative viability for assorted compounds
test system: SW 1573; assay: relative viability (nuclei count vs DMSO), 5 days (fraction); higher = more cells survive; conditions: first compound 2.53 µM

Compound: O=c1cc(-c2cccc3c2Sc2ccccc2S3)oc(N2CCOCC2)c1 + CC(C)C[C@H](NC(=O)[C@H](Cc1ccccc1)NC(=O)c1cnccn1)B(O)O [Bortezomib] (partner 0.002 µM)
relative viability: 1.05
//
Compound: O=c1cc(-c2cccc3c2Sc2ccccc2S3)oc(N2CCOCC2)c1 + CC(=O)c1c(C)c2cnc(Nc3ccc(N4CCNCC4)cn3)nc2n(C2CCCC2)c1=O [Palbociclib] (partner 0.5 µM)
relative viability: 0.377
//
Compound: O=c1cc(-c2cccc3c2Sc2ccccc2S3)oc(N2CCOCC2)c1 + CCNC(=O)c1noc(-c2cc(C(C)C)c(O)cc2O)c1-c1ccc(CN2CCOCC2)cc1 [Luminespib] (partner 0.01 µM)
relative viability: 0.194
//
Compound: COc1nc(C)cnc1NS(=O)(=O)c1cccnc1-c1ccc(-c2nnco2)cc1 [Zibotentan] + COc1cccc2cc(-c3nc([C@H]4CC[C@H](C(=O)O)CC4)n4ncnc(N)c34)[nH]c12 [OSI-027] (partner 0.5 µM)
relative viability: 0.659
//
Compound: COc1nc(C)cnc1NS(=O)(=O)c1cccnc1-c1ccc(-c2nnco2)cc1 [Zibotentan] + Nc1ncn([C@H]2C[C@H](O)[C@@H](CO)O2)c(=O)n1 [Decitabine] (partner 2 µM)
relative viability: 0.613

###

tested on: SK-LU-1; assay: relative viability (nuclei count vs DMSO), 5 days (fraction); higher = more cells survive; conditions: first compound 0.03162 µM
relative viability for assorted compounds
Measured attribute: relative viability

Compound: CCN(CC)CCCCNc1ncc2cc(-c3cc(OC)cc(OC)c3)c(NC(=O)NC(C)(C)C)nc2n1 + O=C(c1cc(Cc2n[nH]c(=O)c3ccccc23)ccc1F)N1CCN(C(=O)C2CC2)CC1 [Olaparib] (partner 8 µM)
Result: 0.404
//
Compound: O=c1cc(N2CCOCC2)oc2c(-c3cccc4c3sc3ccccc34)cccc12 + Cc1nc(Nc2ncc(C(=O)Nc3c(C)cccc3Cl)s2)cc(N2CCN(CCO)CC2)n1 [Dasatinib] (partner 0.075 µM)
Result: 0.175
//
Compound: O=c1cc(N2CCOCC2)oc2c(-c3cccc4c3sc3ccccc34)cccc12 + C[C@]1(O)C[C@@H](c2nc(-c3ccc4ccc(-c5ccccc5)nc4c3)c3c(N)nccn32)C1 [Linsitinib] (partner 1 µM)
Result: 1.25
//
Compound: O=c1cc(N2CCOCC2)oc2c(-c3cccc4c3sc3ccccc34)cccc12 + CS(=O)(=O)N1CCN(Cc2cc3nc(-c4cccc5[nH]ncc45)nc(N4CCOCC4)c3s2)CC1 [Pictilisib] (partner 1 µM)
Result: 0.604
//
Compound: O=c1cc(N2CCOCC2)oc2c(-c3cccc4c3sc3ccccc34)cccc12 + CC(=O)c1c(C)c2cnc(Nc3ccc(N4CCNCC4)cn3)nc2n(C2CCCC2)c1=O [Palbociclib] (partner 0.5 µM)
Result: 0.425
//
Compound: CCN(CC)CCCCNc1ncc2cc(-c3cc(OC)cc(OC)c3)c(NC(=O)NC(C)(C)C)nc2n1 + N=C(N)NC(=N)NCCc1ccccc1 [Phenformin] (partner 250 µM)
Result: 0.551
